In this section we review reported IC50 values for a set of compounds.
system: RBL-2H3 cells; assay: cells; format: cell-based, rat; details: Rattus norvegicus; RBL-2H3 cells; read-out: Degran. IC50: concentration inhibiting mast cell degranulation by 50%
Recorded Endpoint: IC50

INSERT INTO measurements (compound, test_value) VALUES
  ('Cc1ccc(-n2c3c(cc(C(=O)NC4CC(C)(C)NC(C)(C)C4)c2=O)C(=O)CC(C)(C)C3)cc1 [Molecule 22]', '> 10 µg/mL'),
  ('COc1ccc(C2C(C(=O)c3cccs3)=C(O)C(=O)N2CCCn2ccnc2)c(OC)c1 (stereo not shown) [Molecule 2]', '> 10 µg/mL'),
  ('CN(C)S(=O)(=O)c1ccc(C(=O)C2=C(O)C(=O)N(CCCN3CCOCC3)C2c2cccnc2)cc1 (stereo not shown) [Molecule 65]', '> 10 µg/mL'),
  ('C=CCn1c(CNC(=O)c2cccc(C)c2)cnc1SCC(=O)Nc1cccc(C(=O)OC(C)C)c1 [Molecule 75]', '~5 µg/mL'),
  ('COc1cccc2cc(C(=O)C3=C(O)C(=O)N(CCN4CCOCC4)C3c3cccc(Br)c3)oc12 (stereo not shown) [Molecule 85]', '~10 µg/mL'),
  ('CSc1nnc2c(n1)OC(c1cccc(OCc3ccccc3)c1)N(C(C)=O)c1ccccc1-2 (stereo not shown) [Molecule 63]', '~5 µg/mL'),
  ('COc1ccc(NC(=O)CSc2nc3ccccc3c(=O)n2Cc2ccco2)c(OC)c1 [Molecule 69]', '~5 µg/mL'),
  ('COc1ccc(C2C(C(=O)c3ccc(F)cc3)=C(O)C(=O)N2CCN2CCOCC2)c(OC)c1 (stereo not shown) [Molecule 33]', '> 10 µg/mL'),
  ('COc1cc(NS(=O)(=O)c2ccc(NC(C)=O)cc2)c(OC)cc1NC(=O)c1ccccc1 [Molecule 21]', '> 10 µg/mL'),
  ('COc1cc(C2C(C(=O)c3ccc(C)o3)=C(O)C(=O)N2CCN(C)C)cc(OC)c1OC (stereo not shown) [Molecule 52]', '> 10 µg/mL'),
  ('COc1cc(-c2nnc(SCC(=O)Nc3ccc(Cl)cc3)n2CCc2ccccc2)cc(OC)c1OC [Molecule 59]', '~2 µg/mL'),
  ('COc1cccc(C2C(C(=O)c3ccc(F)cc3)=C(O)C(=O)N2CCCN2CCOCC2)c1 (stereo not shown) [Molecule 24]', '> 10 µg/mL'),
  ('Cc1cc(C)c(OCC(=O)N2CCN(C(=O)COc3c(C)cc(C)cc3C)CC2)c(C)c1 [Molecule 58, 1,4-bis [(mesityloxy)acetyl] piperazine]', '~10 µg/mL'),
  ('COc1ccc(C(=O)C2=C(O)C(=O)N(CCN3CCOCC3)C2c2cccnc2)c(C)c1 (stereo not shown) [Molecule 14]', '> 10 µg/mL'),
  ('Cc1cccc(OCC(=O)Nc2cccc3c(NC(=O)COc4cccc(C)c4)cccc23)c1 [Molecule 20]', '> 10 µg/mL'),
  ('CCN(CC)CCCN1C(=O)C(O)=C(C(=O)c2ccc3c(c2)OCO3)C1c1cccnc1 (stereo not shown) [Molecule 51]', '> 10 µg/mL');

* * *

system: RBL-2H3 cells; assay: cells; assay type: cell-based, rat; conditions: Rattus norvegicus; RBL-2H3 cells; read-out: Degran. IC50: concentration inhibiting mast cell degranulation by 50%
In this section we review reported IC50 values for a set of compounds.
Recorded Endpoint: IC50

INSERT INTO measurements (compound, recorded_endpoint, test_value) VALUES
  ('N#CC1=C(N)Oc2[nH]nc(-c3ccccc3)c2C1c1cccc(OC(=O)c2ccco2)c1 (stereo not shown)', 'IC50', '> 10 mg/L'),
  ('COc1ccccc1C1C(C(=O)c2cc(C)ccc2C)=C(O)C(=O)N1CCN1CCOCC1 (stereo not shown)', 'IC50', '> 10 mg/L'),
  ('CCn1c(CCC(=O)c2ccc(Cl)cc2)nnc1SCC(=O)Nc1ccc(Br)c(C)c1C', 'IC50', '~7 mg/L'),
  ('Cc1ccc(-c2nnc(Nc3cccc(O)c3)c3ccccc23)cc1S(=O)(=O)NC(C)(C)CO', 'IC50', '> 10 mg/L');

* * *

target: murine Syk tyrosine kinase protein (GST:Syk 6-242) (Mus musculus, UniProt P48025)
Recorded Endpoint: IC50

INSERT INTO assay_data (compound_structure_string, recorded_endpoint, test_value) VALUES
  ('COC(=O)c1ccccc1-c1ccc(/C=C2/SC(=S)N(Cc3ccccc3)C2=O)o1', 'IC50', '~4 µM');

* * *

This section lists pKd readings for Syk protein (UniProt P48025).
pKd: −log10 of the molar value.
Recorded Endpoint: pKd

INSERT INTO results (compound, test_value) VALUES
  ('Cc1cc(C(=O)Nc2ccccc2C(=O)O)ccc1NC(=O)COc1ccc(C(C)C)cc1', 5.26),
  ('O=C(Nc1ccccc1)c1ccc(NCCN2CCOCC2)c(S(=O)(=O)N2CCOCC2)c1', 5.52),
  ('O=C(NCc1nnc(NCc2nc3ccccc3c(=O)[nH]2)n1-c1ccccc1)c1ccccc1F', 5.17),
  ('COC(=O)c1ccccc1-c1ccc(/C=C2/SC(=S)N(Cc3ccccc3)C2=O)o1', 5.32),
  ('CCOC(=O)c1sc(N2C(=O)C(O)=C(C(=O)c3ccc(F)cc3)C2c2ccc(C)cc2)nc1C (centres unmarked)', 5.20);

* * *

target: murine Syk tyrosine kinase protein (GST:Syk 6-242) (Mus musculus); construct: made in house; assay: ADA method: displacement of the binding of scFv G4G11 with Syk (ELISA); settings: small molecules at 10 μM, scFv G4G11 100 nM; read-out: In vit. inhib.: mean inhibition % of the binding of scFv G4G11 with Syk in the ADA method
# cutoff 50% applies to inhibition at 10 µM; >= gives class 1, < gives class 0

INSERT INTO results (compound, group) VALUES
  ('O=C(NCc1nnc(NCc2nc3ccccc3c(=O)[nH]2)n1-c1ccccc1)c1ccccc1F [Molecule 29]', 'class 1'),
  ('Cc1ccc(-n2c3c(cc(C(=O)NC4CC(C)(C)NC(C)(C)C4)c2=O)C(=O)CC(C)(C)C3)cc1 [Molecule 22]', 'class 1'),
  ('COc1cc(-c2nnc(SCC(=O)Nc3ccc(Cl)cc3)n2CCc2ccccc2)cc(OC)c1OC [Molecule 59]', 'class 0'),
  ('CC(C)c1ccc(C2C(C(=O)c3ccccc3)=C(O)C(=O)N2CCN2CCOCC2)cc1 (centres unmarked) [Molecule 26]', 'class 1'),
  ('COc1cccc(C2C(C(=O)c3ccc(C)o3)=C(O)C(=O)N2CCN2CCOCC2)c1 (centres unmarked) [Molecule 53]', 'class 0'),
  ('COc1ccc(S(=O)(=O)N(CCc2ccccc2)CC(=O)Nc2ccc(C(N)=O)cc2)cc1 [Molecule 18]', 'class 1'),
  ('CCOC(=O)C1CCN(C(=O)c2ccc(CN(c3ccc(C)c(C)c3)S(C)(=O)=O)cc2)CC1 [Molecule 80]', 'class 0'),
  ('O=C(O)CCC(=O)N(Cc1ccccc1)Cc1cn(-c2ccccc2)nc1-c1cccs1 [Molecule 23]', 'class 1');

* * *

In this section we review reported inhibition at 10 µM values for a set of compounds.
target: murine Syk tyrosine kinase protein (GST:Syk 6-242) (Mus musculus); construct: made in house; assay: ADA method: displacement of the binding of scFv G4G11 with Syk (ELISA); settings: small molecules at 10 μM, scFv G4G11 100 nM; read-out: In vit. inhib.: mean inhibition % of the binding of scFv G4G11 with Syk in the ADA method
Recorded Endpoint: inhibition at 10 µM (%)

INSERT INTO measurements (compound, recorded_endpoint, readout_unit, test_value) VALUES
  ('COc1cccc(C2C(C(=O)c3ccc(Cl)cc3)=C(O)C(=O)N2CCN2CCOCC2)c1 (centres unmarked)', 'inhibition at 10 µM', '%', 29),
  ('COc1cc(NS(=O)(=O)c2ccc(NC(C)=O)cc2)c(OC)cc1NC(=O)c1ccccc1', 'inhibition at 10 µM', '%', 58),
  ('COc1ccc(C2C(C(=O)c3ccc(F)cc3)=C(O)C(=O)N2CCN2CCOCC2)cc1OC (centres unmarked)', 'inhibition at 10 µM', '%', 50),
  ('CC(C)c1ccc(C2C(C(=O)c3ccc(F)cc3)=C(O)C(=O)N2CCCN2CCOCC2)cc1 (centres unmarked)', 'inhibition at 10 µM', '%', 60),
  ('CCN1C2=C(C(=O)CCC2)C(c2ccc(OCc3ccc(C)cc3)c(Cl)c2)C2=C1CCCC2=O', 'inhibition at 10 µM', '%', 25);
